Can you tell me solubility at 18 h for the items I'm about to list?
experiment: Water solubility assay (pH 7.8 buffer); format: physicochemical; settings: pH 7.8
Numbered stars: 1 amine (or outer) side, 2 acyl side, 3 side chain; on linkers, the order of the positions; unused ones are H or OH. Square brackets hold non-standard residues; d marks the D form. Peptide text beside a SMILES is read from it. X8 = C[C@H](CCN1CCC[C@H]1CO)[C@@H](O)[C@H](C(=O)[*:2])N(C)[*:1]; d(aThr) = C[C@@H](O)[C@@H](N)C(=O)O; NMeL = CN[C@@H](CC(C)C)C(=O)O; dNMeL = CN[C@H](CC(C)C)C(=O)O; dNMeV = CN[C@@H](C(=O)O)C(C)C; Hiv = CC(C)[C@H](O)C(=O)O; Sar = CNCC(=O)O

CC(C)CC1NC(=O)[C@H](CC(C)C)N(C)C(=O)CN(C)C(=O)C([C@@H](C)O)NC(=O)C([C@H](O)[C@H](C)CCN2CCOCC2)N(C)C(=O)C(C(C)C)N(C)C(=O)C(CC(C)C)NC(=O)C(CC(C)C)N(C)C(=O)C(C(C)C)OC(=O)C(C)NC(=O)C(CC(C)C)N(C)C1=O (stereo in doubt) :: > 100 µM

Any idea what its solubility at 18 h is? The molecule is CC(C)C[C@@H]1C(=O)N[C@H](CC(C)C)C(=O)N(C)[C@H](C(C)C)C(=O)N(C)[C@H]([C@H](O)[C@H](C)CCN2CCC[C@H]2CO)C(=O)N[C@H]([C@@H](C)O)C(=O)N(C)CC(=O)N(C)[C@@H](CC(C)C)C(=O)N[C@H](CC(C)C)C(=O)N(C)[C@H](CC(C)C)C(=O)N[C@H](C)C(=O)O[C@@H](C(C)C)C(=O)N1C [Example 26] (cyclo([Hiv][dNMeL][dL][dNMeV][X8][d(aThr)][Sar][NMeL][dL][dNMeL][dA]))
> 100 µM

These data points were gathered from patent US9382295B2.
